Target: T1, hPD-L1mIg fusion protein (human, UniProt Q9NZQ7 19-238)
T1 construct: also called hPD-L1 mIg protein; biotin-labeled hPD-L1-mouse Fc fusion protein; not shown: mouse Ig (Fc) part
T1 sequence (Q9NZQ7 19-238): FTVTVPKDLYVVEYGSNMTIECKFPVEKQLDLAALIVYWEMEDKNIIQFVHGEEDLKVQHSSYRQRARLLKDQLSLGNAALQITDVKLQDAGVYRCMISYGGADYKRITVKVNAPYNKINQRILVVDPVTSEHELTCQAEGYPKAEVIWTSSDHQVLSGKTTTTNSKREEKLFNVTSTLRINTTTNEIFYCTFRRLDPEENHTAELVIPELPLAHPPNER
Experiment: SPR, Biacore T200; hPD-L1 mIg amine-coupled on CM5 chip, antibody injected at 1-32 nM, full kinetic analysis
Experimental: The binding affinities and kinetics between the humanized anti-hPD-L1 mAbs and the hPD-L1 protein were assessed with Biacore T200 (GE Healthcare Life Sciences). The hPD-L1 mIg protein was immobilized on the sensor chip CM5 by amine coupling. […] Binding kinetic parameters, including association rate (Kₒₙ), dissociation rate (Koff), and affinity constant (KD) were determined by full kinetic analysis. […]
Below is a list of entries, each paired with its recorded koff value.
experimental.readout: koff (s⁻¹)

{"columns": ["binder", "unit.info", "assay.result"],
 "data": [
  ["anti-PD-L1 HC3 + LC1 (antibody, V domains shown, Humanized antibody, Humanized VH3 + Humanized VL 1; also called H3+L1; H31) VH: EVQLVQSGAEVKKPGASVKVSCKASGFNIKDTYMYWVRQAPGQGLEWMGRIDPANDNTKYAQKFQGRVTITADTSTNTAYMELSSLRSEDTAVYYCARAKNLLNYFDYWGQGTLVTVSS VL: DIQMTQSPSSLSASVGDRVTITCRASQEISGYLSWYQQKPGKAPKRLIYATSTLDSGVPSRFSGSGSGTDFTLTISSLQPEDFATYYCLQYAIYPLTFGQGTKLEIKR", "s⁻¹", 0.00146],
  ["anti-PD-L1 HC3 + LC2 (antibody, V domains shown, Humanized antibody, Humanized VH3 + Humanized VL 2; also called H3+L2; H32) VH: EVQLVQSGAEVKKPGASVKVSCKASGFNIKDTYMYWVRQAPGQGLEWMGRIDPANDNTKYAQKFQGRVTITADTSTNTAYMELSSLRSEDTAVYYCARAKNLLNYFDYWGQGTLVTVSS VL: DIQMTQSPSSLSASVGDRVTITCRASQEISGYLSWLQQKPGKAPKRLIYATSTLQSGVPSRFSGSRSGTDYTLTISSLQPEDFATYYCLQYAIYPLTFGQGTKLEIKR", "s⁻¹", 0.0011],
  ["anti-PD-L1 HC2 + LC3 (antibody, V domains shown, Humanized antibody, Humanized VH 2 + Humanized VL 3; also called H2+L3; H23) VH: QVQLVQSGAEVKKPGASVKVSCKASGFNIKDTYMYWVRQAPGQGLEWIGRIDPANDNTKYAPKFQGRVTITADTSTNTAYMELSSLRSEDTAVYYCARAKNLLNYFDYWGQGTLVTVSS VL: DIQMTQSPSSLSASVGDRVTITCRASQEISGYLSWYQQKPGKAPKRLIYATSTLDSGVPSRFSGSRSGSDYTLTISSLQPEDFATYYCLQYAIYPLTFGQGTKLEIKR", "s⁻¹", 0.00417],
  ["anti-PD-L1 HC1 + LC1 (antibody, V domains shown, Humanized antibody, Humanized VH 1 + Humanized VL 1; also called H1+L1; H11) VH: QVQLVQSGAEVKKPGASVKVSCKASGFNIKDTYMYWVRQAPGQGLEWMGRIDPANDNTKYAQKFQGRVTITADTSTSTAYMELSSLRSEDTAVYYCARAKNLLNYFDYWGQGTLVTVSS VL: DIQMTQSPSSLSASVGDRVTITCRASQEISGYLSWYQQKPGKAPKRLIYATSTLDSGVPSRFSGSGSGTDFTLTISSLQPEDFATYYCLQYAIYPLTFGQGTKLEIKR", "s⁻¹", 0.0012],
  ["anti-PD-L1 parental (mouse-human chimeric mAb) (antibody, human IgG1, kappa, V domains shown, its variable domains are the same; also called parental chimeric antibody; parental (PA200)) VH: EVQLQQSGAELVKPGASVKLSCTASGFNIKDTYMYWVKQRPEQGLECIGRIDPANDNTKYDPKFQGKATITADTSSNTAYVQLASLTSEDTAVYYCARAKNLLNYFDYWGQGTTLTVSS VL: DIQMTQSPSSLSASLGERVTLSCRASQEISGYLSWLQQKPDGTIKRLIYATSTLDSGVPKRFSGSRSGSDYSLTISSLESEDFADYYCLQYAIYPLTFGAGTKLELKR", "s⁻¹", 0.000118]
]}
